procedure-details: Protein binding in vitro (ultrafiltration)
Type: in vitro ADME
condition-set: male, human serum, 37 °C, read-out: protein binding (% bond) (converted)
Reported fraction unbound at 1 h, 50 µM is given for each of the following compounds.
Answer using only a numeral; do not append any unit.

Before answering, review these 4 worked examples.
- compound: "O=C(Nc1c(F)c(F)c(-c2cccc(F)c2)c(F)c1F)c1c(O)nn2ccccc12"
  measurement: 0.0004
- compound: "Cc1c(-c2ccc(-c3ccccc3F)cc2)nc2ccc(F)cc2c1C(=O)O [Brequinar, reference compound]"
  measurement: 0.0117
- compound: "O=C(Nc1c(F)c(F)c(-c2cccnc2)c(F)c1F)c1c(O)nn2ccccc12"
  measurement: 0.0042
- compound: "O=C(Nc1c(F)c(F)c(-c2cccc(C(F)(F)F)c2)c(F)c1F)c1c(O)nn2ccccc12"
  measurement: 0.0006

Okay, now this compound:
Documented fraction unbound at 1 h, 50 µM of `COc1cccc(-c2c(F)c(F)c(NC(=O)c3c(O)nn4ccccc34)c(F)c2F)c1` : 0.0005

====

target: recombinant hDHODH (Homo sapiens, UniProt Q02127)
Construct: made in house; host or cells: E. coli BL21DE3 PyrD
Sequence (Q02127 whole entry): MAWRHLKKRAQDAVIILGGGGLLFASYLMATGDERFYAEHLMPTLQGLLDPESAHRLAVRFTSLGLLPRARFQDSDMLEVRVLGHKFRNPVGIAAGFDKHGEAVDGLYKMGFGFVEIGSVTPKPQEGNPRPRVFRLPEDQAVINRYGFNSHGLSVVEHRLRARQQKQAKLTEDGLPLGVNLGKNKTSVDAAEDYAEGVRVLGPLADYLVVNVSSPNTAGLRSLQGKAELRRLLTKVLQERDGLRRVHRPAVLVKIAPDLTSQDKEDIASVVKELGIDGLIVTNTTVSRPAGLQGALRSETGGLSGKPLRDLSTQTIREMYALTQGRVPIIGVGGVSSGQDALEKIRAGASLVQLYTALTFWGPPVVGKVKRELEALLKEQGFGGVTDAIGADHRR
procedure-details: hDHODH inhibition assay (DCIP reduction)
Assay type: biochemical
condition-set: supplementary CSV; values differ from Table 2; read-out: hDHODH IC50 ± SE (supplement CSV)
Threshold-based label: IC50 under 3 nM gives 1.0, IC50 not under 3 nM gives 0.0.

Take a look at these entries with their results.
- compound: "O=C(Nc1c(F)c(F)c(-c2cccnc2)c(F)c1F)c1c(O)nn2ccccc12 [Compound 8]"
  classification: 0.0
- compound: "O=C(Nc1c(F)c(F)c(-c2cccc(O)c2)c(F)c1F)c1c(O)nn2ccccc12 [Compound 14]"
  classification: 1.0
- compound: "O=C(Nc1c(F)c(F)c(-c2cccs2)c(F)c1F)c1c(O)nn2ccccc12 [Compound 7]"
  classification: 1.0

Say whether its IC50 is strictly beneath 3 nM. Entry: O=C(Nc1c(F)c(F)c(-c2ccc(C(F)(F)F)cc2)c(F)c1F)c1c(O)nn2ccccc12 [Compound 12]
0.0

Say whether its IC50 is strictly beneath 3 nM. Entry: COc1cccc(-c2c(F)c(F)c(NC(=O)c3c(O)nn4ccccc34)c(F)c2F)c1 [Compound 16]
1.0

Say whether its IC50 is strictly beneath 3 nM. Entry: O=C(Nc1c(F)c(F)c(-c2cccc(F)c2)c(F)c1F)c1c(O)nn2ccccc12 [Compound 11]
1.0

Say whether its IC50 is strictly beneath 3 nM. Entry: O=C(Nc1c(F)c(F)c(-c2cccc(OC(F)(F)F)c2)c(F)c1F)c1c(O)nn2ccccc12 [Compound 15]
1.0

Say whether its IC50 is strictly beneath 3 nM. Entry: O=C(Nc1c(F)c(F)c(-c2ccc(F)cc2)c(F)c1F)c1c(O)nn2ccccc12 [Compound 10]
0.0

====

System: U937 cells
procedure-details: Annexin V apoptosis assay in U937
condition-set: Homo sapiens, U-937, 72 h, read-out: apoptosis EC50 U937 (CL 95%)
Reported EC50 is given for each of the following molecules.

Before answering, review these 3 worked examples.
- smi: "COc1cccc(-c2c(F)c(F)c(NC(=O)c3c(O)nn4ccccc34)c(F)c2F)c1"
  measured-endpoint: "EC50"
  measurement: "42.8 nM"
- smi: "O=C(Nc1c(F)c(F)c(-c2cccc(C(F)(F)F)c2)c(F)c1F)c1c(O)nn2ccccc12"
  measured-endpoint: "EC50"
  measurement: "60 nM"
- smi: "O=C(Nc1c(F)c(F)c(-c2cccc(F)c2)c(F)c1F)c1c(O)nn2ccccc12"
  measured-endpoint: "EC50"
  measurement: "68.2 nM"

Documented EC50 of `O=C(Nc1c(F)c(F)c(-c2cccc(OC(F)(F)F)c2)c(F)c1F)c1c(O)nn2ccccc12` : 35.3 nM

====

procedure-details: LogD7.4, shake-flask n-octanol/PBS
condition-set: n-octanol/PBS, pH 7.4
Entry flag: 1 if logD reaches 2; 0 if it does not.

- smi: "O=C(Nc1c(F)c(F)c(N2CCOCC2)c(F)c1F)c1c(O)nn2ccccc12"
  classification: 0
- smi: "O=C(Nc1c(F)c(F)c(-c2cccc(C(F)(F)F)c2)c(F)c1F)c1c(O)nn2ccccc12"
  classification: 1
- smi: "O=C(Nc1c(F)c(F)c(-c2ccnc(C(F)(F)F)c2)c(F)c1F)c1c(O)nn2ccccc12"
  classification: 0

Identify whether the reported logD of the following molecule is 2 or greater: `O=C(Nc1c(F)c(F)c(-c2cccc(O)c2)c(F)c1F)c1c(O)nn2ccccc12`
0

Identify whether the reported logD of the following molecule is 2 or greater: `CCCOc1cccc(-c2c(F)c(F)c(NC(=O)c3c(O)nn4ccccc34)c(F)c2F)c1`
1

Identify whether the reported logD of the following molecule is 2 or greater: `O=C(Nc1c(F)c(F)c(-c2cccc(OC(F)(F)F)c2)c(F)c1F)c1c(O)nn2ccccc12`
1

Identify whether the reported logD of the following molecule is 2 or greater: `O=C(Nc1c(F)c(F)c(-c2cccnc2)c(F)c1F)c1c(O)nn2ccccc12`
0

Identify whether the reported logD of the following molecule is 2 or greater: `O=C(Nc1c(F)c(F)c(-c2cccc(F)c2)c(F)c1F)c1c(O)nn2ccccc12`
1

====

Tested on: THP1 cells
procedure-details: Differentiation assay (CD14 expression) in THP1
condition-set: Homo sapiens, THP-1, read-out: Differentiation EC50 (C.L.95%) (supplement CSV)
Reported EC50 is given for each of the following compounds.
Report only the number, with the unit nM understood.

- compound: "O=C(Nc1c(F)c(F)c(-c2cccc(C(F)(F)F)c2)c(F)c1F)c1c(O)nn2ccccc12 [Compound 13]"
  EC50 (nM): 32
- compound: "COc1cccc(-c2c(F)c(F)c(NC(=O)c3c(O)nn4ccccc34)c(F)c2F)c1 [Compound 16]"
  EC50 (nM): 26.9
- compound: "O=C(Nc1c(F)c(F)c(-c2cccc(F)c2)c(F)c1F)c1c(O)nn2ccccc12 [Compound 11]"
  EC50 (nM): 58.9

Okay, now this compound:
Documented EC50 of O=C(Nc1c(F)c(F)c(-c2cccc(OC(F)(F)F)c2)c(F)c1F)c1c(O)nn2ccccc12 [Compound 15] : 28

====

Reported log10 solubility at 24 h is given for each of the following compounds.
procedure-details: Solubility assay at pH 7.4 in PBS
Assay type: physicochemical
condition-set: phosphate buffered saline; pH 7.4, 25 °C, 24 h; LOD 6 μM
// do not treat as linear: log10 of solubility at 24 h, unit µM

Before answering, review these 3 worked examples.
- compound: "O=C(Nc1c(F)c(F)c(-c2cccc(O)c2)c(F)c1F)c1c(O)nn2ccccc12 [Compound 14]"
  measurement: 1.74
- compound: "O=C(Nc1c(F)c(F)c(-c2ccnc(C(F)(F)F)c2)c(F)c1F)c1c(O)nn2ccccc12 [Compound 9]"
  measurement: 1.31
- compound: "O=C(Nc1c(F)c(F)c(-c2cccc(OC(F)(F)F)c2)c(F)c1F)c1c(O)nn2ccccc12 [Compound 15]"
  measurement: 0.91

Documented log10 solubility at 24 h of COc1cccc(-c2c(F)c(F)c(NC(=O)c3c(O)nn4ccccc34)c(F)c2F)c1 [Compound 16] : 1.87

Documented log10 solubility at 24 h of O=C(Nc1c(F)c(F)c(N2CCOCC2)c(F)c1F)c1c(O)nn2ccccc12 [Compound 6] : 2.64

====

System: Jurkat cells
procedure-details: CFSE-based cytotoxic activity assay
condition-set: concentration inducing cytotoxicity ≥30%, 3 days
measured-endpoint: cytoxicity Jurkat (effect ≥30% ± SD) (µM)
Report only the number, with the unit µM understood.

- molecule: "O=C(Nc1c(F)c(F)c(-c2cccc(F)c2)c(F)c1F)c1c(O)nn2ccccc12"
  target: "Jurkat cells"
  cytoxicity Jurkat (effect ≥30% ± SD) / µM: 39

Documented cytoxicity Jurkat (effect ≥30% ± SD) of CCn1c(CO)nn(-c2cc(O[C@@H](C)C(F)(F)F)c(C(=O)Nc3c(F)cccc3Cl)cc2F)c1=O [BAY-2402234, reference compound] : 36

Documented cytoxicity Jurkat (effect ≥30% ± SD) of `COc1cccc(-c2c(F)c(F)c(NC(=O)c3c(O)nn4ccccc34)c(F)c2F)c1` : 68

====

Reported solubility at 24 h is given for each of the following molecules.
procedure-details: Solubility assay at pH 7.4 in PBS
Assay type: physicochemical
condition-set: phosphate buffered saline; pH 7.4, 25 °C, 24 h; LOD 6 μM

Before answering, review these 3 worked examples.
- smi: "O=C(Nc1c(F)c(F)c(-c2ccc(C(F)(F)F)cc2)c(F)c1F)c1c(O)nn2ccccc12"
  solubility at 24 h: "< 6 µM"
- smi: "O=C(Nc1c(F)c(F)c(-c2cccc(F)c2)c(F)c1F)c1c(O)nn2ccccc12"
  solubility at 24 h: "< 6 µM"
- smi: "O=C(Nc1c(F)c(F)c(-c2cccc(C(F)(F)F)c2)c(F)c1F)c1c(O)nn2ccccc12"
  solubility at 24 h: "< 6 µM"

Okay, now this molecule:
Documented solubility at 24 h of `O=C(Nc1c(F)c(F)c(-c2ccc(F)cc2)c(F)c1F)c1c(O)nn2ccccc12` : < 6 µM
